Source: paper PMC4527730

Target: Cdc42 (Homo sapiens, UniProt P60953)
Sequence (P60953 whole entry): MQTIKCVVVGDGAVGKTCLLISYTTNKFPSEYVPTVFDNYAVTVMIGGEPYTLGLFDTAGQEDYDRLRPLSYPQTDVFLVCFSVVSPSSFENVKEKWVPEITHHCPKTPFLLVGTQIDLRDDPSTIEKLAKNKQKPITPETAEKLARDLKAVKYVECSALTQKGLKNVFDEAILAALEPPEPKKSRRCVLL
Experiment: Multiplex bead-based flow cytometry dose-response of fluorescent guanine nucleotide binding
Conditions: read-out: EC50 Cdc42; BODIPY-FL GTP binding; 2 h at 4°C
MEASUREMENT_TYPE: EC50 (µM)

1) CC1(C)Cc2c(sc(NC(=S)NC(=O)c3ccccc3F)c2C(=O)O)CO1 | 3.72
2) Cc1cccc(C(=O)NC(=S)Nc2sc3c(c2C(=O)O)CC(C)(C)OC3)c1 | 5.87
3) CC1(C)Cc2c(sc(NC(=S)NC(=O)c3cccc(F)c3)c2C(=O)O)CO1 | 21.2
4) COc1cccc(C(=O)NC(=S)Nc2sc3c(c2C(=O)O)CC(C)(C)OC3)c1 | 0.58
5) COc1ccccc1C(=O)NC(=S)Nc1sc2c(c1C(=O)O)CC(C)(C)OC2 | 20.8
6) Cc1ccc(NC(=O)Nc2sc3c(c2C(=O)O)CCN(C)C3)cc1 | 26.2
7) CC1(C)Cc2c(sc(NC(=S)NC(=O)c3ccc(F)cc3)c2C(=O)O)CO1 | 1
8) CC1Cc2c(sc(NC(=S)NC(=O)c3ccccc3)c2C(=O)O)CO1 (stereo not shown) | 9.09

====

Target: Cdc42 (Homo sapiens)
Experiment: Multiplex bead-based flow cytometry dose-response of fluorescent guanine nucleotide binding
Conditions: EC50 Cdc42_1, without incubation before BODIPY-FL GTP; Cdc42 purified in house
pEC50: −log10 of the molar value.
MEASUREMENT_TYPE: pEC50

1) CC1(C)Cc2c(sc(NC(=S)NC(=O)c3ccccc3)c2C(=O)O)CO1 [Compound 1] | 5.65

====

System: GTPases (H-Ras, H-Ras G12V, Cdc42, Cdc42 Q61L, Rac1, Rac1 Q61L, RhoA, Rab7)
Experiment: Multiplex dose-response assay, statements across the GTPase panel
Settings: SAR versus compound 1
MEASUREMENT_TYPE: inhibitory activity on BODIPY-FL GTP binding across all GTPases tested (in words)

1. CC1(C)Cc2c(sc(NC(=O)Cc3ccccc3)c2C(=O)O)CO1 | inactive
2. CC1(C)Cc2c(sc(NC(=S)Nc3ccccc3)c2C(=O)O)CO1 | inactive

====

Below is a list of entries, each paired with its recorded pEC50 value.
Target: UniProtKB P63000
Assay: Multiplex bead-based flow cytometry dose-response of fluorescent guanine nucleotide binding
Settings: read-out: EC50 Rac1; BODIPY-FL GTP binding; 2 h at 4°C; 1 mM MgCl2
pEC50: −log10 of the molar value.
MEASUREMENT_TYPE: pEC50

1) CC1(C)Cc2c(sc(NC(=S)NC(=O)c3ccc(F)cc3)c2C(=O)O)CO1 | 6.82
2) CC1Cc2c(sc(NC(=S)NC(=O)c3ccccc3)c2C(=O)O)CO1 (centres unmarked) | 7.10
3) COc1cccc(C(=O)NC(=S)Nc2sc3c(c2C(=O)O)CC(C)(C)OC3)c1 | 6.72
4) Cc1cccc(C(=O)NC(=S)Nc2sc3c(c2C(=O)O)CC(C)(C)OC3)c1 | 5.82
5) Cc1ccccc1C(=O)NC(=S)Nc1sc2c(c1C(=O)O)CC(C)(C)OC2 | 6.36
6) CC1(C)CCc2sc(NC(=S)NC(=O)c3ccccc3)c(C(=O)O)c2C1 | 7.17
7) CC1(C)Cc2c(sc(NC(=S)NC(=O)c3cccc(Br)c3)c2C(=O)O)CO1 | 4.51
8) CC1(C)Cc2c(sc(NC(=S)NC(=O)c3cccs3)c2C(=O)O)CO1 | 7.54
9) CC1(C)Cc2c(sc(NC(=S)NC(=O)c3ccc(Br)cc3)c2C(=O)O)CO1 | 6.59
10) CC1(C)Cc2c(sc(NC(=S)NC(=O)c3cccc(F)c3)c2C(=O)O)CO1 | 6.32
11) O=C(NC(=S)Nc1sc2c(c1C(=O)O)CC1(CCCC1)OC2)c1ccccc1 | 7.22

====

Items are presented alongside their recorded EC50.
Molecular target: Rab7 (Canis lupus familiaris, UniProt P18067)
Sequence (P18067 2-207 limits assumed): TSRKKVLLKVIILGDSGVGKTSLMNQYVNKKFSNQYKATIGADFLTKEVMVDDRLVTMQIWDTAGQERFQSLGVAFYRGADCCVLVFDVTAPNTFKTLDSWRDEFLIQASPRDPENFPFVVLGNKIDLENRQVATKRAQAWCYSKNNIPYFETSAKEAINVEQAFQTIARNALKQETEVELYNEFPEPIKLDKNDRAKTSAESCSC
Test: Multiplex bead-based flow cytometry dose-response of fluorescent guanine nucleotide binding
Conditions: read-out: EC50 Rab7; BODIPY-FL GTP binding; 2 h at 4°C
MEASUREMENT_TYPE: EC50

1) CC1(C)Cc2c(sc(NC(=S)NC(=O)c3ccccc3F)c2C(=O)O)CO1 | 0.14 µM
2) CN1CCc2c(sc(NC(=O)Nc3ccc(F)cc3)c2C(=O)O)C1 | > 1000 µM
3) COc1ccc(C(=O)NC(=S)Nc2sc3c(c2C(=O)O)CC(C)(C)OC3)cc1 | 0.14 µM
4) CC(C)(C)OC(=O)c1c(NC(=S)NC(=O)c2ccccc2)sc2c1CCOC2 | > 1000 µM
5) Cc1ccc(NC(=O)Nc2sc3c(c2C(=O)O)CCN(C)C3)cc1 | 49.3 µM

====

Molecular target: Rac1 Q61L (Homo sapiens, UniProt P63000, Q61L)
Experiment: Multiplex bead-based flow cytometry dose-response of fluorescent guanine nucleotide binding
Conditions: EC50 Rac1 Q61L, BODIPY-FL GTP binding; 2 h at 4°C
MEASUREMENT_TYPE: EC50 (nM)

1. CC1(C)Cc2c(sc(NC(=S)NC(=O)c3ccccc3)c2C(=O)O)CO1 | 75

====

Target: RhoA (Homo sapiens, UniProt P61586)
Sequence (P61586 whole entry): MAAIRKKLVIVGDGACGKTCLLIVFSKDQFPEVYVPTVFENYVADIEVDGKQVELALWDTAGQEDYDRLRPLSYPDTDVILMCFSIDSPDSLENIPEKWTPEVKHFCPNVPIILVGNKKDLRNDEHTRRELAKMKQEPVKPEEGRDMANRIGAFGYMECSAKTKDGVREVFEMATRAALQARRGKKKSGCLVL
Test: Multiplex bead-based flow cytometry dose-response of fluorescent guanine nucleotide binding
Details: read-out: EC50 RhoA; BODIPY-FL GTP binding; 2 h at 4°C; 1 mM MgCl2
Param label: returns 1 when EC50 < 0.2 µM, returns 0 otherwise, including exact equality.

1) CC1(C)Cc2c(sc(NC(=O)NC(=O)c3ccccc3)c2C(=O)O)CO1 | 0
2) CCC1(C)Cc2c(sc(NC(=S)NC(=O)c3ccccc3)c2C(=O)O)CO1 (centres unmarked) | 1
3) CC1(C)Cc2c(sc(NC(=S)NC(=O)c3cccs3)c2C(=O)O)CO1 | 1
4) CC1(C)Cc2c(sc(NC(=S)NC(=O)c3cccc(Br)c3)c2C(=O)O)CO1 | 0
5) COc1ccc(C(=O)NC(=S)Nc2sc3c(c2C(=O)O)CC(C)(C)OC3)cc1 | 1
6) CC1(C)Cc2c(sc(NC(=S)NC(=O)c3ccc(F)cc3)c2C(=O)O)CO1 | 1
7) Cc1cccc(C(=O)NC(=S)Nc2sc3c(c2C(=O)O)CC(C)(C)OC3)c1 | 0
8) CC1Cc2c(sc(NC(=S)NC(=O)c3ccccc3)c2C(=O)O)CO1 (centres unmarked) | 1
9) CC1(C)Cc2c(sc(NC(=S)NC(=O)c3ccco3)c2C(=O)O)CO1 | 1
10) O=C(NC(=S)Nc1sc2c(c1C(=O)O)CC1(CCCC1)OC2)c1ccccc1 | 1
11) CC1(C)CCc2sc(NC(=S)NC(=O)c3ccccc3)c(C(=O)O)c2C1 | 1
12) O=C(NC(=S)Nc1sc2c(c1C(=O)O)CCOC2)c1ccccc1 | 0
13) CC1(C)Cc2c(sc(NC(=S)NC(=O)c3cccc(F)c3)c2C(=O)O)CO1 | 0
14) CC1(C)Cc2c(sc(NC(=S)NC(=O)c3ccccc3F)c2C(=O)O)CO1 | 1
15) CC1(C)Cc2c(sc(NC(=S)NC(=O)c3ccc(Br)cc3)c2C(=O)O)CO1 | 0
16) CC1(C)Cc2c(sc(NC(=S)NC(=O)c3ccccc3Br)c2C(=O)O)CO1 | 0
17) Cc1ccc(C(=O)NC(=S)Nc2sc3c(c2C(=O)O)CC(C)(C)OC3)cc1 | 1
18) Cc1ccccc1C(=O)NC(=S)Nc1sc2c(c1C(=O)O)CC(C)(C)OC2 | 0

====

Target: H-Ras (Homo sapiens)
Sequence (P01112 whole entry): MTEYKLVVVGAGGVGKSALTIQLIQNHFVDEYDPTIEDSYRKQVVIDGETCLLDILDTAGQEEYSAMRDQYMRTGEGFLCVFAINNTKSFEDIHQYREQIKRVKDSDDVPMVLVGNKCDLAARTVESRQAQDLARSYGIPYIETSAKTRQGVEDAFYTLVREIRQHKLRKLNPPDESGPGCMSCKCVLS
Test: Multiplex bead-based flow cytometry dose-response of fluorescent guanine nucleotide binding
Settings: EC50 H-Ras, BODIPY-FL GTP binding; 2 h at 4°C
MEASUREMENT_TYPE: EC50 (nM)

1) CC1(C)Cc2c(sc(NC(=S)NC(=O)c3ccccc3)c2C(=O)O)CO1 | 160

====

Biological target: Cdc42 Q61L (Homo sapiens, UniProt P60953, Q61L)
Sequence (P60953 whole entry Q61L): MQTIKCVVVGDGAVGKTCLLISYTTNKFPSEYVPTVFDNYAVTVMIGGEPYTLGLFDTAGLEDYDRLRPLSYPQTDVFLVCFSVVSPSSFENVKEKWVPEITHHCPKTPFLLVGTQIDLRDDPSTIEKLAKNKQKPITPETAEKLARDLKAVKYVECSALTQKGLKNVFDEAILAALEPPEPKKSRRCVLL
Test: Multiplex bead-based flow cytometry dose-response of fluorescent guanine nucleotide binding
Settings: EC50 Cdc42 Q61L, concentration dependence on BODIPY-FL GDP
pEC50: −log10 of the molar value.
MEASUREMENT_TYPE: pEC50

1) CC1(C)Cc2c(sc(NC(=S)NC(=O)c3ccccc3)c2C(=O)O)CO1 [Compound 1] | 6.46

====

log10 EC50 values, listed per item
Target: H-Ras G12V (Homo sapiens, UniProt P01112, G12V)
Sequence (P01112 whole entry G12V): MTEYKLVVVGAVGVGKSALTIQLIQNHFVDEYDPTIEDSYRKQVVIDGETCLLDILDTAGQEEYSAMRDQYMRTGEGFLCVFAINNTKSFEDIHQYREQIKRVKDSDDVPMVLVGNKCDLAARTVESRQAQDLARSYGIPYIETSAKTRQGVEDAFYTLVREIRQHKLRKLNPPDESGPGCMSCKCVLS
Assay: Multiplex bead-based flow cytometry dose-response of fluorescent guanine nucleotide binding
Details: read-out: EC50 H-Ras G12V; BODIPY-FL GTP binding; 2 h at 4°C
MEASUREMENT_TYPE: log10 EC50 (log10 of the value in µM)

1. CC1(C)Cc2c(sc(NC(=S)NC(=O)c3ccccc3Br)c2C(=O)O)CO1 | -0.37
2. CC1Cc2c(sc(NC(=S)NC(=O)c3ccccc3)c2C(=O)O)CO1 (centres unmarked) | -0.89
3. COc1ccccc1C(=O)NC(=S)Nc1sc2c(c1C(=O)O)CC(C)(C)OC2 | -0.09
4. Cc1cccc(C(=O)NC(=S)Nc2sc3c(c2C(=O)O)CC(C)(C)OC3)c1 | -0.07
5. O=C(NC(=S)Nc1sc2c(c1C(=O)O)CC1(CCCC1)OC2)c1ccccc1 | -1.52
6. CCC1(C)Cc2c(sc(NC(=S)NC(=O)c3ccccc3)c2C(=O)O)CO1 (centres unmarked) | -1.46
7. CC1(C)Cc2c(sc(NC(=S)NC(=O)c3cccc(Br)c3)c2C(=O)O)CO1 | 0.03
8. CC1(C)Cc2c(sc(NC(=S)NC(=O)c3cccs3)c2C(=O)O)CO1 | -1.62
9. CC1(C)CCc2sc(NC(=S)NC(=O)c3ccccc3)c(C(=O)O)c2C1 | -1.11
